Data origin: the supplement of paper PMC9694430

System: LOC_OS01G60700-cb002;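 further: purified Escherichia coli-expressed rice kinase domain construct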
PROTOCOL_DESCRIPTION: thermal shift delta Tm vs DMSO control; higher = stronger stabilization (binding)
MEASUREMENT_CONDITIONS: 12.5 µM; protein concentration 2 µM
QUANTITY_KIND: thermal shift delta Tm (°C)

1. C=CC(=O)Nc1cccc(Oc2nc(Nc3ccc(N4CCN(C)CC4)cc3)nc3ccsc23)c1    3.14
2. Cn1cc(-c2cnn3c(N)c(Br)c([C@@H]4CCCNC4)nc23)cn1    0.1
3. COC(=O)c1ccc2c(c1)NC(=O)/C2=C(\Nc1ccc(N(C)C(=O)CN2CCN(C)CC2)cc1)c1ccccc1    0.96
4. O=c1cc(-c2cccc3c2Sc2ccccc2S3)oc(N2CCOCC2)c1    0.76
5. O=C(Nc1cccc(Nc2ncc(Br)c(NCCc3cnc[nH]3)n2)c1)N1CCCC1    0.44
6. Nc1cc(C(F)(F)F)c(-c2cc(N3CCOCC3)nc(N3CCOCC3)n2)cn1    1.2
